# Species: Canis familiaris
# methodNotes: In vitro vascular relaxation in canine mesenteric veins precontracted with phenylephrine.
# Format: functional
# conditionsUsed: Canis lupus familiaris, Mesenteric vein
The following ranges of EC50 define the classes used here: bottom = under 500 nM, middle = from 500 nM up to 3000 nM, top = 3000 nM and over

Cc1nccn1-c1ccc2nc(O)c3cnc(C)n3c2c1
middle
Cc1[nH]c(=O)c(C#N)cc1-c1ccncc1 [MILRINONE]
middle
CCc1nc(C)c2c(O)nc3ccccc3n12
middle
CCc1ncc2c(O)nc3ccc(-n4ccnc4)cc3n12
bottom
Cc1ncc2c(O)nc3ccccc3n12
middle
CCc1nc(C)c2c(O)nc3ccc(-n4ccnc4)cc3n12
bottom
Oc1nc2cccnc2n2ccnc12
top
CCc1nc(C)cn1-c1ccc2nc(O)c3c(C)nc(CC)n3c2c1
bottom

QUERY: Which class is correct for the following compound? Cc1ncc2c(O)nc3ccc(-n4ccnc4)cc3n12
RESULT: middle

QUERY: Which class is correct for the following compound? CCc1nc(C)c2c(O)nc3ccc(N4CCOCC4)cc3n12
RESULT: bottom

QUERY: Which class is correct for the following compound? Oc1nc2ccc(-n3ccnc3)cc2n2ccnc12
RESULT: top

QUERY: Which class is correct for the following compound? CC(C)Cn1c(=O)n(C)c(=O)c2nc[nH]c21 [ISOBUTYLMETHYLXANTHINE]
RESULT: middle

QUERY: Which class is correct for the following compound? Cc1cn2c(n1)c(O)nc1ccccc12
RESULT: bottom

QUERY: Which class is correct for the following compound? CCc1nc(C)c2c(=O)n(C)c3ccccc3n12
RESULT: top

QUERY: Which class is correct for the following compound? CCc1nccn1-c1ncnc2c1nc(O)c1cnc(CC)n12
RESULT: top

QUERY: Which class is correct for the following compound? CCc1nc(C)c2c(N)nc3ccccc3n12
RESULT: top

QUERY: Which class is correct for the following compound? O=[N+]([O-])OCC(CO[N+](=O)[O-])O[N+](=O)[O-] [NITROGLYCERIN]
RESULT: bottom

QUERY: Which class is correct for the following compound? CCc1ncc2c(O)nc3ccncc3n12
RESULT: middle

QUERY: Which class is correct for the following compound? Cc1nccn1-c1ccc2nc(O)c3cnc(C)n3c2n1
RESULT: middle

QUERY: Which class is correct for the following compound? Oc1nc2ccc(-n3ccnc3)nc2n2ccnc12
RESULT: top

Where do these numbers come from? They come from ChEMBL document CHEMBL1125195.
